target: human GABAA α2β2γ1 receptor (Homo sapiens (Human), UniProt P47869+Q8N1C3); test: Radioligand binding assay, competition for [3H]RO7239181, γ1-containing GABAA subtype α2β2γ1; conditions: Ki α1β3γ2 (nM)/Ki α2β2γ1 (nM)
hey, just use YES if measured γ2/γ1 Selectivity Ratio is less than 60, otherwise NO

Answered examples (5):
>  <test-smiles>
O=c1ccn2c(n1)CN=C(c1ncccc1F)c1c-2ccc(Cl)c1Cl

>  <class>
YES

$$$$
>  <test-smiles>
CCOCCc1cn2c(nc1=O)[C@H](C)N=C(c1c(F)cccc1F)c1c-2ccc(C(F)(F)F)c1Cl

>  <class>
NO

$$$$
>  <test-smiles>
C[C@@H]1N=C(c2c(F)cccc2F)c2c(ccc(Cl)c2Br)-n2cc(Br)c(=O)nc21

>  <class>
YES

$$$$
>  <test-smiles>
CNC(=O)c1cn2c(nc1=O)[C@H](C)N=C(c1c(F)cccc1F)c1c-2ccc(C(F)(F)F)c1Cl

>  <class>
NO

$$$$
>  <test-smiles>
Cc1cn2c(nc1=O)[C@H](C)N=C(c1c(F)cccc1F)c1c-2ccc(C(F)(F)F)c1Cl

>  <class>
NO

$$$$

I wonder whether CCO/C=C/c1cn2c(nc1=O)[C@H](C)N=C(c1c(F)cccc1F)c1c-2ccc(C(F)(F)F)c1Cl has γ2/γ1 Selectivity Ratio below 60. Can you tell? NO

I wonder whether O=c1ccn2c(n1)CN=C(c1ccccc1F)c1c-2ccc(Cl)c1Cl has γ2/γ1 Selectivity Ratio below 60. Can you tell? YES

I wonder whether CCOCCc1cn2c(nc1=O)CN=C(c1c(F)cccc1F)c1c-2ccc(C(F)(F)F)c1Cl has γ2/γ1 Selectivity Ratio below 60. Can you tell? NO

I wonder whether Cc1ccc2c(c1Cl)C(c1c(F)cccc1F)=N[C@@H](C)c1nc(=O)c(C)cn1-2 has γ2/γ1 Selectivity Ratio below 60. Can you tell? YES

I wonder whether C[C@@H]1N=C(c2c(F)cccc2F)c2c(ccc(Cl)c2Br)-n2ccc(=O)nc21 has γ2/γ1 Selectivity Ratio below 60. Can you tell? YES

I wonder whether CCO/C=C/c1cn2c(nc1=O)CN=C(c1c(F)cccc1F)c1c-2ccc(Cl)c1Cl has γ2/γ1 Selectivity Ratio below 60. Can you tell? NO

I wonder whether CCO/C=C/c1cn2c(nc1=O)CN=C(c1c(F)cccc1F)c1c-2ccc(C(F)(F)F)c1Cl has γ2/γ1 Selectivity Ratio below 60. Can you tell? NO

I wonder whether C[C@@H]1N=C(c2c(F)cccc2F)c2c(ccc(Br)c2Cl)-n2ccc(=O)nc21 has γ2/γ1 Selectivity Ratio below 60. Can you tell? YES

I wonder whether C[C@@H]1N=C(c2c(F)cccc2F)c2c(ccc(Br)c2Cl)-n2cc(Br)c(=O)nc21 has γ2/γ1 Selectivity Ratio below 60. Can you tell? NO

I wonder whether O=c1nc2n(cc1Br)-c1ccc(Cl)c(Cl)c1C(c1c(F)cccc1F)=NC2 has γ2/γ1 Selectivity Ratio below 60. Can you tell? NO

I wonder whether CCO/C=C/c1cn2c(nc1=O)[C@H](C)N=C(c1c(F)cccc1F)c1c-2ccc(Cl)c1Cl has γ2/γ1 Selectivity Ratio below 60. Can you tell? YES

I wonder whether C[C@@H]1N=C(c2c(F)cccc2F)c2c(ccc(C(F)(F)F)c2Cl)-n2cc(CO)c(=O)nc21 has γ2/γ1 Selectivity Ratio below 60. Can you tell? NO

I wonder whether C[C@@H]1N=C(c2c(F)cccc2F)c2c(ccc(C(F)(F)F)c2Cl)-n2cc(C(=O)NC3CC3)c(=O)nc21 has γ2/γ1 Selectivity Ratio below 60. Can you tell? NO

I wonder whether C[C@@H]1N=C(c2c(F)cccc2F)c2c(ccc(Cl)c2Cl)-n2ccc(=O)nc21 has γ2/γ1 Selectivity Ratio below 60. Can you tell? NO

I wonder whether O=c1nc2n(cc1Br)-c1ccc(Br)c(Cl)c1C(c1c(F)cccc1F)=NC2 has γ2/γ1 Selectivity Ratio below 60. Can you tell? NO

I wonder whether C[C@@H]1N=C(c2c(F)cccc2F)c2c(ccc(C(F)(F)F)c2Cl)-n2ccc(=O)nc21 has γ2/γ1 Selectivity Ratio below 60. Can you tell? NO

I wonder whether CCc1cn2c(nc1=O)[C@H](C)N=C(c1c(F)cccc1F)c1c-2ccc(C(F)(F)F)c1Cl has γ2/γ1 Selectivity Ratio below 60. Can you tell? NO

I wonder whether O=c1ccn2c(n1)CN=C(c1c(F)cccc1F)c1c-2ccc(Br)c1Cl has γ2/γ1 Selectivity Ratio below 60. Can you tell? NO

I wonder whether O=c1ccn2c(n1)CN=C(c1c(F)cccc1F)c1c-2ccc(Cl)c1Cl has γ2/γ1 Selectivity Ratio below 60. Can you tell? YES

I wonder whether O=c1ccn2c(n1)CN=C(c1c(F)cccc1F)c1c-2ccc(Cl)c1Br has γ2/γ1 Selectivity Ratio below 60. Can you tell? YES
